B1: H2-Kb / G6 (parent)
chain 1: AQSVTQPDARVTVSEGASLQLRCKYSYFGTPYLFWYVQYPRQGLQLLLKYYPGDPVVQGVNGFEAEFSKSNSSFHLRKASVHWSDWAVYFCAVTPGGSNAKLTFGKGTKLSVKS
chain 2: NSGVVQSPRYIIKGKGERSILKCIPISGHLSVAWYQQTQGQELKFFIQHYDKMERDKGNLPSRFSVQQFDDYHSEMNMSALELEDSAVYFCASSRQGGDNNQAPLFGEGTRLSVL
chain 3: not shown
chain 4: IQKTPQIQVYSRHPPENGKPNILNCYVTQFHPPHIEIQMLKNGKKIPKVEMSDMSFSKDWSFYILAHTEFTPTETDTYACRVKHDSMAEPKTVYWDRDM
chain 5: SIINFEKL

Variants of: B1
Experiment: % of reporter cells activated (NFAT-GFP), raw; further: test concentration or dose not given here
Conditions: with G6; scale: % of reporter cells activated
MEASURED ATTRIBUTE: ratio to parent
Response field accepts a number only; no unit should be typed.

[
  {
    "MUTANT CODE": "chain 5 E6I",
    "VALUE REPORTED": 0.321
  },
  {
    "MUTANT CODE": "chain 5 I3N",
    "VALUE REPORTED": 0.181
  },
  {
    "MUTANT CODE": "chain 5 I3H",
    "VALUE REPORTED": 0.288
  }
]

# ratio to parent (variant: chain 5 E6W ) is 7.22
